Target: Aldo-keto reductase family 1 member C1 (Homo sapiens)
Sequence (Q04828 whole entry): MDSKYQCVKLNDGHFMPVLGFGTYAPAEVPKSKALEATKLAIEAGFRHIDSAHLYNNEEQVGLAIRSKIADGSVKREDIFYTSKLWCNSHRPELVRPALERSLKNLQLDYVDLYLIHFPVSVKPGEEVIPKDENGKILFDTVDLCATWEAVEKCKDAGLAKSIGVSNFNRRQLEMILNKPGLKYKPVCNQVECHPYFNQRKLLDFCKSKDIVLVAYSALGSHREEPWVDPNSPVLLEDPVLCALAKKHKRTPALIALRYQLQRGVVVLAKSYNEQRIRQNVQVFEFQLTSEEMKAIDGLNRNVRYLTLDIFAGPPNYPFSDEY
Assay: Inhibition of recombinant AKR1C1 assessed as enzyme catalyzed oxidation of S-tetralol by fluorimetric assay
endpoint: pIC50
# pIC50 = -log10(concentration in molar units)

Aldo-keto reductase family 1 member C1 (Homo sapiens) / pIC50 / O=C(O)c1cccc(Nc2ccc([N+](=O)[O-])c3ccccc23)c1 : value?
4.95

====

Target: Prostaglandin G/H synthase 1 (Homo sapiens)
Sequence (P23219 whole entry): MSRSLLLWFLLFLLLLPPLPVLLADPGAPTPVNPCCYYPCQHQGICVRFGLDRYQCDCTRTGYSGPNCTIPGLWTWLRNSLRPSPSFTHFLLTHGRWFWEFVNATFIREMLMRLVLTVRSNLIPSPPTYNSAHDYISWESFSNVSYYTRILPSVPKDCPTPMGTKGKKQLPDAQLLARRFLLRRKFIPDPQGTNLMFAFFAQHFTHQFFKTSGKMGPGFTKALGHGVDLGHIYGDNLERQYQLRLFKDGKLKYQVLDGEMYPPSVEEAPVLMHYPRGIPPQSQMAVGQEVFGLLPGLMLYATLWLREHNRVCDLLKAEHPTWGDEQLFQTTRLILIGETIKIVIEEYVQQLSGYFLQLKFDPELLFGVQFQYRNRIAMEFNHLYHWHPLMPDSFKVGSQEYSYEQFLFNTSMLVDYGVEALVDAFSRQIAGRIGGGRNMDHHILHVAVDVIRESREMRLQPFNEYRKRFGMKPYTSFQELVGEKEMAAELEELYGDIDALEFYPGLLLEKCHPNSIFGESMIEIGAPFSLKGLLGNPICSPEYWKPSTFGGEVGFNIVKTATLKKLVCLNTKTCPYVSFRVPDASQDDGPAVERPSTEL
Test: Inhibition of recombinant COX1
endpoint: IC50

State the recorded IC50 for this entry: O=C(O)c1ccccc1Nc1cccc(C(F)(F)F)c1
2.23 µM

Moving on to O=C(O)c1cccc(Nc2ccc([N+](=O)[O-])c3ccccc23)c1
> 100 µM

Could you now consider this next compound?
State the recorded IC50 for this entry: O=C(O)c1cccc(Nc2ccc(C(F)(F)F)cc2)c1
> 100 µM
